Listed next: entries and their corresponding pEC50.
target: human RXFP1 (Homo sapiens); construct: expressed in transfected cells; experiment: human RXFP1 (hRXFP1) HEK293 cAMP assay (HTRF); type: cell-based; settings: HEK293 cells stably expressing human RXFP1, 30 min at room temperature
Sequence (Q9HBX9 whole entry): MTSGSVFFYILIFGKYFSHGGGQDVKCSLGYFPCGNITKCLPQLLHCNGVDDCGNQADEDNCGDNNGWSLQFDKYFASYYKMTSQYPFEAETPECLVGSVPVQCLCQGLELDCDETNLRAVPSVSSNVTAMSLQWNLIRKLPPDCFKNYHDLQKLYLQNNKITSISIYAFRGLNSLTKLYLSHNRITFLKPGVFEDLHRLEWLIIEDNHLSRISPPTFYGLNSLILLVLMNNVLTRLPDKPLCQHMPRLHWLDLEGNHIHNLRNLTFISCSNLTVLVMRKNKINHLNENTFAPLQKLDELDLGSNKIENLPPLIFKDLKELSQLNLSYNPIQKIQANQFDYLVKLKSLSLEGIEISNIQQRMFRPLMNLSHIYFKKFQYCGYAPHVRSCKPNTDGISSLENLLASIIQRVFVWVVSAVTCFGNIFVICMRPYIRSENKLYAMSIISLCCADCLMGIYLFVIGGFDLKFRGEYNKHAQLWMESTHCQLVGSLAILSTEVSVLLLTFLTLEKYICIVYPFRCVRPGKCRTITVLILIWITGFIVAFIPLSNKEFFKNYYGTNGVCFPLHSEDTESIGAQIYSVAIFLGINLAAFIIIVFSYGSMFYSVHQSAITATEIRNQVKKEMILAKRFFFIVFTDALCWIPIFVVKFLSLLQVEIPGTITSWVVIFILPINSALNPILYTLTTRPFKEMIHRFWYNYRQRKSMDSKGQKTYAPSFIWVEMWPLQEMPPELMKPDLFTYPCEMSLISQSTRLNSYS
pEC50: −log10 of the molar value.

| compound | pEC50 |
| --- | --- |
| CCC(O)C1CC2ON=C(c3cnc(OC)c(C(=O)N[C@H]4[C@@H](C(=O)Nc5ccc(F)c(C(F)(F)F)c5)[C@H]5CC[C@@H]4/C5=C\C4CC4)c3)C2C1 (some centres unmarked) | 8.37 |
| COc1ncc(C(=O)N2CC3(COC3)C2)cc1C(=O)N[C@H]1[C@@H](C(=O)Nc2ccc(F)c(C(F)(F)F)c2)[C@H]2CC[C@@H]1/C2=C\C1CC1 | 7.19 |
| COc1nn(C)cc1C(=O)N[C@@H]1C2CCC(/C2=C/C(F)(F)F)[C@@H]1C(=O)Nc1ccc(F)c(C(F)(F)F)c1 (some centres unmarked) | 5.34 |
| N#Cc1ccc2c(c1)CCc1c(C(=O)N[C@H]3[C@@H](C(=O)Nc4ccc(F)c(C(F)(F)F)c4)[C@H]4CC[C@@H]3/C4=C\C(F)(F)F)nn(CC(F)F)c1-2 | 6.44 |
| COc1ncc(C2=NOC3CC(C(C)O)CC23)cc1C(=O)N[C@H]1[C@@H](C(=O)Nc2ccc(F)c(C(F)(F)F)c2)[C@H]2CC[C@@H]1/C2=C\C1CCCC1 (some centres unmarked) | 8.31 |
| COc1ncc(COC2(CO)CC2)cc1C(=O)N[C@H]1[C@@H](C(=O)Nc2ccc(F)c(C(F)(F)F)c2)[C@H]2CC[C@@H]1/C2=C\C1CC1 | 7.62 |
| COc1ncc(C2=NOC3CC(O)CC23)cc1C(=O)N[C@H]1[C@@H](C(=O)Nc2ccc(F)c(C(F)(F)F)c2)[C@H]2CC[C@@H]1/C2=C\CCC(F)(F)F (some centres unmarked) | 8.89 |
| COc1ncc(C2=NOC3CC(CO)CC23)cc1C(=O)N[C@H]1[C@@H](C(=O)N[C@H](C)C2(C)CC2(F)F)[C@H]2CC[C@@H]1/C2=C\C(F)(F)F (some centres unmarked) [Example 118] | 8.40 |
| COc1ncc(-c2cc([C@H](OC(=O)NC3CCOCC3)C(F)(F)F)ccc2F)cc1C(=O)N[C@@H]1C2CCC(/C2=C/C2CC2)[C@@H]1C(=O)Nc1ccc(F)c(C(F)(F)F)c1 (some centres unmarked) | 8.60 |
| COc1ncc(C(=O)NCC2(S(C)(=O)=O)CC2)cc1C(=O)N[C@H]1C(C(=O)Nc2ccc(F)c(C(F)(F)F)c2)[C@H]2CC[C@@H]1/C2=C\C1CC1 (stereo in doubt) | 8.46 |
| CC1(C)Cc2cc(C3=NOC4CC(CO)CC34)cc(C(=O)N[C@@H]3C4CCC(/C4=C/C4CC4)[C@@H]3C(=O)Nc3ccc(F)c(C(F)(F)F)c3)c2O1 (some centres unmarked) | 8.70 |
